- Experiment notes: chemical genetic growth profiling, strain panel (AID 1159580);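 further: tested at 20 µM; growth read once vehicle control cultures reached saturation at 30 °C; 1 = growth at the plate median or of vehicle wells; lower values mean less growth of the strain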
- Condition context: S. cerevisiae deletion strains, growth OD, locus YGR052W, strain FMP48, active compounds read low
Screen size: about 5,500 compounds; about 2,000 (36%) were called active. About 18% were inconclusive and are not listed. The list shows a part of the results.
Observed property: normalized growth
API note: the answer field is a bare number with no unit suffix.

Lookup: What normalized growth value was documented for this compound, CSc1n[nH]c(-c2cc(C(C)(C)C)oc2C)c1C#N ?
Found: 0.833

Lookup: What normalized growth value was documented for this compound, Clc1ccc(CN2CCN(c3cccc4[nH]ccc34)CC2)cc1Cl ?
Found: 1.1

Lookup: What normalized growth value was documented for this compound, COC(=O)C1=C(Nc2ccccc2NS(=O)(=O)c2ccc(C(F)(F)F)cc2Cl)CSC1 ?
Found: 1.03

Lookup: What normalized growth value was documented for this compound, OC(COc1ccc(F)cc1)(c1ccc(Cl)cc1)c1ccc(Cl)cc1 ?
Found: 1.08

Lookup: What normalized growth value was documented for this compound, CSc1sc(C(=O)Sc2ccccc2)cc1S(=O)(=O)C(C)C ?
Found: 0.927

Lookup: What normalized growth value was documented for this compound, COC(=O)c1sccc1NS(=O)(=O)c1cc(Cl)cc(Cl)c1 ?
Found: 1.05

---

- Experiment notes: chemical genetic growth profiling, strain panel (AID 1159580);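 further: tested at 20 µM; growth read once vehicle control cultures reached saturation at 30 °C; 1 = growth at the plate median or of vehicle wells; lower values mean less growth of the strain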
- Condition context: S. cerevisiae deletion strains, growth OD, locus YNL161W, strain CBK1, active compounds read low
The whole screen tested about 5,500 compounds, of which about 2,000 (36%) were called active. Not shown: some 18% with an inconclusive outcome. The list shows a part of the results.
Observed property: normalized growth
API note: the answer field is a bare number with no unit suffix.

> print(dat)
                                   compound  observed.property  reported.value
1  O=C(Nc1ccc(F)cc1F)c1cc(Cl)c(-n2cccc2)c(Cl)c1  normalized growth           0.967

Okay, next one:
Lookup: What normalized growth value was documented for this compound, Clc1ccc(CN2CCN(c3cccc4[nH]ccc34)CC2)cc1Cl ?
Found: 0.998

---

- Experiment notes: chemical genetic growth profiling, strain panel (AID 1159580);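 further: tested at 20 µM; growth read once vehicle control cultures reached saturation at 30 °C; 1 = growth at the plate median or of vehicle wells; lower values mean less growth of the strain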
- Condition context: S. cerevisiae deletion strains, growth OD, locus YAL013W, strain DEP1, active compounds read low
Screen size: about 5,500 compounds; about 2,000 (36%) were called active. Not shown: some 18% with an inconclusive outcome. This is one part of the list.
This listing pairs compounds with measured normalized growth.
API note: the answer field is a bare number with no unit suffix.

Example entries and their recorded answers appear below.
Compound	normalized growth
NCC(=O)c1ccccc1	1.02
NC(N)=NC(N)=Nc1ccc2c(c1)OCCO2	0.987
NC1=NCCN1CC(=O)O	0.99
CNNC	1.01
CO[C@H]1CC(O[C@@H]2/C(C)=C/C[C@@H]3C[C@@H](C[C@]4(CC[C@H](C)[C@@H](C5CCCCC5)O4)O3)OC(=O)[C@@H]3C=C(C)/C(=N\O)[C@H]4OC/C(=C\C=C\[C@@H]2C)[C@]43O)O[C@@H](C)C1O (some centres undefined)	0.956

Lookup: What normalized growth value was documented for this compound, C[C@@H](NC(=O)/C(C#N)=C/c1ccc(O)c(O)c1)c1ccccc1 ?
Found: 0.997

Lookup: What normalized growth value was documented for this compound, CN(C)c1ccc(O)c2c1C[C@H]1C[C@H]3[C@H](N(C)C)C(=O)C(C(N)=O)=C(O)[C@@]3(O)C(=O)C1=C2O ?
Found: 0.988

Lookup: What normalized growth value was documented for this compound, CN(C)[C@@H]1C(=O)C(C(N)=O)=C(O)[C@@]2(O)C(=O)C3=C(O)c4c(O)ccc(Cl)c4[C@@H](O)[C@H]3C[C@@H]12 ?
Found: 1

Lookup: What normalized growth value was documented for this compound, FC(F)(F)c1cc(-c2noc(C3CCc4ccccc4O3)n2)cc(C(F)(F)F)c1 (centres undefined) ?
Found: 0.999

Reference source for all entries: PubChem BioAssay AID1159580
